Below, each entry is listed with its recorded polymerase ribozyme fitness (log ratio).
B1: TPR t1 (parent)
chain: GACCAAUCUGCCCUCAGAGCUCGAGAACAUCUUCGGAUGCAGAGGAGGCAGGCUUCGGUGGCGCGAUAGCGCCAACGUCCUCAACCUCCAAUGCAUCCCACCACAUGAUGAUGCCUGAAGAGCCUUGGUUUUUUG

# Variants of: B1
# ASSAY: polymerase ribozyme fitness, log enrichment relative to wild type (log ratio); higher = more active; in vitro selection for triplet polymerase activity
The response must contain the number and no unit.

Recorded results for 10 variants are shown here.
VARIANT STRING | polymerase ribozyme fitness (log ratio)
A6U G10U C13G C40U A41C G63U U78C C79A A121G | -4.13
C4G C12G | -1.12
C72U G77A A111U G113A | -5.99
A41C C70G | -3.91
A16U C123U | 0.19
C8G C34U C70A G117A U126A | -6.92
G19A G48U C53G G58U U59A | -3.69
G57C A90G G113U C115A | -5.11
C12A A41U G45A C64A U87C A100C U116C | -6.47
C76A G110A C115A | -2.95

stdin: Field request: polymerase ribozyme fitness (log ratio) | item: G25A C40U G63A G113C U129A
stdout: -6.66

stdin: Field request: polymerase ribozyme fitness (log ratio) | item: A6U C70A A91G
stdout: -2.94

stdin: Field request: polymerase ribozyme fitness (log ratio) | item: C15U G120A
stdout: -1.08

stdin: Field request: polymerase ribozyme fitness (log ratio) | item: A41C A90C C123G G128C
stdout: -2.07
